# experiment summary: physchem
# condition description: aqueous solution, pH 1
# Description: Chemical stability in aqueous solution at pH 1 after 2 hrs
experimental readout: remaining at 2 h (%)
Response body: numeric value in %, unit text excluded.

Could you share which remaining at 2 h value was measured for `CN(C)CCCCc1ccc(C2COC2)cc1` ?
83

---

# experiment summary: physchem
# Description: Ionization constant, pKa by spectrophotometry
pKa values by entry
// print number alone

chemical smiles	pKa
CN(C)CCCCc1ccc(C2COC2)cc1	9.9
c1cc2c(cc1CN1CCCC1)OCO2	9.7
c1cc2c(cc1CN1CCCCC13COC3)OCO2	7
c1cc2c(cc1CN1CCC3(COC3)C1)OCO2	8.1
CC1(C)CCCN1Cc1ccc2c(c1)OCO2	10
O=C1CCCN(Cc2ccc3c(c2)OCO3)C1	7.6
CN(C)C1(CCCc2ccc(C(C)(C)C)cc2)COC1	7.2
CN(C)CCCCc1ccc(C2(C)COC2)cc1	9.9

Which pKa is reported for this compound? `c1cc2c(cc1CN1CCCC3(COC3)C1)OCO2`
7.9

Name the recorded pKa for `CN(C)CCC1(Cc2ccc(C(C)(C)C)cc2)COC1` .
9.2

Name the reported pKa value associated with the compound `CN(C)CCC(C)(C)Cc1ccc(C(C)(C)C)cc1`
9.5
